pKi: −log10 of the molar value.
The entries that follow carry pKi values tested on Carbonic anhydrase 2 (Homo sapiens, UniProt P00918), drawn from several published reports.
Observable: pKi

// below: answered compounds
{"Compound": "COc1ccc(S(=O)(=O)N(CC(=O)NO)OC(C)C)cc1", "Target Or System": "Carbonic anhydrase 2 (Homo sapiens, UniProt P00918)", "pKi": 7.04}
{"Compound": "NS(=O)(=O)c1cccc(NSC(=S)N2CCOCC2)c1", "Target Or System": "Carbonic anhydrase 2 (Homo sapiens, UniProt P00918)", "pKi": 6.82}
{"Compound": "O=C(CN(Cc1ccccc1)S(=O)(=O)C(F)(F)C(F)(F)C(F)(F)C(F)(F)F)NO", "Target Or System": "Carbonic anhydrase 2 (Homo sapiens, UniProt P00918)", "pKi": 7.07}

(1) NS(=O)(=O)c1ccc(Nc2nc(Cl)nc(NCCCCO)n2)cc1
(2) CCC(C)C(NOCc1ccccc1)C(=O)NO (stereo not given)
(3) NS(=O)(=O)c1ccc(C(=O)c2cccc(C(=O)O)n2)c(I)c1
Order field: pKi | Direction: descending (largest first) Give the labels in the order requested. 3, 1, 2
(3: 7.48, 1: 6.92, 2: 3.57)
